Test System: hLPAR1 (human lysophosphatidic acid receptor 1) (Homo sapiens, UniProt Q92633)
Sequence (Q92633 whole entry): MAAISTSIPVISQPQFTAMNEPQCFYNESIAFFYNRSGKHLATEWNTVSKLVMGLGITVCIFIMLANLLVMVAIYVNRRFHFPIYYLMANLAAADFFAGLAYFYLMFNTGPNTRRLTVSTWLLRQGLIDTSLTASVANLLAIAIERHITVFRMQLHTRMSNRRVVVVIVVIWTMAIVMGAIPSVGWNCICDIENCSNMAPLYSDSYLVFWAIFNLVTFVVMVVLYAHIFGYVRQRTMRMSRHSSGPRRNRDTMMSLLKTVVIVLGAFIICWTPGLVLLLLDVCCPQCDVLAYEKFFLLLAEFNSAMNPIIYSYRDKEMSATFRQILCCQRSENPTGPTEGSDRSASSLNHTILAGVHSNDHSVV
Assay Notes: FLIPR assay of intracellular calcium increase induced by activation of hLPAR1 expressed in CHO-K1 cells
Assay type: cell-based
Measurement Conditions: CHO-K1 cells expressing hLPAR1, agonist oleoyl-L-α-lysophosphatidic acid 1 μM; read-out: LPAR1 IC50
Procedure: The antagonist property of the compounds disclosed herein was determined using the FLIPR (fluorescence imaging plate reader) method, wherein the compounds are inhibitors for the intracellular calcium increase induced by activation of hLPAR1 (human lysophosphatidic acid receptor 1, accession No. NM_001401.4) expressed in CHO-K1 cells (Chinese hamster ovary cells K1, ATCC). […]
Measurement Name: IC50

Take a look at these entries with their results.
molecule="CN(C(=O)OCc1c(-c2cnc(O[C@H]3CCC[C@H](C(=O)O)C3)c(C#N)n2)cnn1C)C1CCCC1 (racemic)" result="< 50 nM"
molecule="CN(C(=O)OCc1c(-c2ccc(O[C@H]3CCC[C@H](C(=O)O)C3)c(CF)n2)cnn1C)C1CCCC1 (racemic)" result="50 to 300 nM"
molecule="CN(C(=O)OCc1ocnc1-c1ccc(O[C@H]2CCC[C@H](C(=O)O)C2)c(F)c1)C1CCCC1 (racemic)" result="300 to 10000 nM"

Proceed to the following item.
Fill blank: measured IC50 of the molecule CN(C(=O)OCc1c(-c2cnc(O[C@H]3CCC[C@H](C(=O)O)C3)c(F)n2)cnn1C)C1CCCC1 (racemic) is ____.
< 50 nM
